- Tested on: Wolbachia pipientis
- protocol.notes: Anti-Wolbachia Cell-Based Screen
- Format: functional
- Set-up: scale not given: in the data most compounds retested in dose-response had high values
- condition.notes: 5 µM
Hit rate of the full screen: of about 48,000 compounds, about 13,000 (27%) showed an effect of 50% or more. The list shows a part of the results.
Give Percent Effect for every item shown.
Numbers only, in %.

molecule: O=C(NCc1ccccc1CN1CCCC1=O)Nc1nncs1
unit.descriptor: %
reported.value: -15.38

molecule: Cc1nc(CCCNC(=O)c2c(F)cc(F)cc2F)n[nH]1
unit.descriptor: %
reported.value: 108.5

molecule: COc1c(C)cnc(CNC(=O)CCc2nc3ccccc3[nH]2)c1C
unit.descriptor: %
reported.value: 4.531

molecule: Cc1cnn(C2CCCN(C(=O)c3ccc(O)nc3)C2)c1 (configuration not stated)
unit.descriptor: %
reported.value: 123.6

molecule: O=C(CCc1nc2ccccc2[nH]1)NC1CCOC2(CCOCC2)C1 (configuration not stated)
unit.descriptor: %
reported.value: 103.6

Each of the following entries comes with a recorded value; kindly state Percent Effect for each.
1. CC(C)(C)c1nnc(CN2CCN(CC(O)c3ccccc3)CC2)o1 (configuration not stated)
2. COc1ccc2cccc(CC(=O)NCCCc3n[nH]c(C)n3)c2c1
3. Cc1nc(CCCNC(=O)c2c(F)cccc2Br)n[nH]1
4. O=C(c1cc(COc2ccc3c(c2)OCO3)[nH]n1)N1CCCO1
5. COc1cc(Cl)ccc1C(=O)NCc1n[nH]c(C)n1
6. Cc1nc(CCCNC(=O)c2cc(F)ccc2O)n[nH]1
7. Cc1c(C)n(Cc2ccccn2)c2nc3c(c(N)c12)CCCC3

-4.717
-4.195
89.06
-2.662
-9.051
85.21
5.52

* * *

- Test system: Wolbachia pipientis
- protocol.notes: Anti-Wolbachia Cell-Based Screen
- Type: functional
- Parameters: scale not given: in the data most compounds retested in dose-response had high values
- condition.notes: 5 µM
Out of some 48,000 compounds screened, about 13,000 (27%) showed an effect of 50% or more. This is one part of the list.
measurement.name: Percent Effect (%)
Answers are plain numbers, in %.

molecule: CCN(Cc1ncc(C(C)(C)C)o1)Cc1ccccc1C
tested.on: Wolbachia pipientis
measurement.name: Percent Effect
reported.value: -27.71

molecule: Cn1ccnc1-c1ccc(NCC2COc3ccccc3O2)nn1 (stereo unspecified)
tested.on: Wolbachia pipientis
measurement.name: Percent Effect
reported.value: -1.636

molecule: Cc1cc(CN(C)Cc2ncc(C(C)(C)C)o2)no1
tested.on: Wolbachia pipientis
measurement.name: Percent Effect
reported.value: 71.54

molecule: CCN(Cc1cccc(Cl)c1)Cc1ncc(C(C)(C)C)o1
tested.on: Wolbachia pipientis
measurement.name: Percent Effect
reported.value: -36.69

molecule: CC(C)N(CCO)C(=O)C1CCC(=O)N(Cc2ccc(Cl)cc2)C1 (stereo unspecified)
tested.on: Wolbachia pipientis
measurement.name: Percent Effect
reported.value: 0.7255

Each of the following entries comes with a recorded value; kindly state Percent Effect for each.
1. COc1ccc(CN2CC(O)CN(C(=O)OCC(C)C)CC2=O)cc1 (stereo unspecified)
2. Cc1nc(N2CCN(C(=O)c3ccccc3)CC2)cc(-n2ccnc2)n1
3. CCOC(=O)c1coc(N2CCN(Cc3ccc(C)cc3)C(=O)C2)n1
4. COc1ccc(CN2CC(O)CN(C(=O)CC(C)C)CC2=O)cc1 (stereo unspecified)
5. CCc1cnc(N2C[C@H]3CN(Cc4ccc(OC)cc4)C(=O)[C@H]3C2)nc1
6. COc1ccc(CN2CCN(c3nccnc3OC)CC2=O)cc1

[126.2, -0.4006, -18.23, 135.2, -6.562, -6.7]

* * *

Give Percent Effect for every item shown.
- Tested on: Wolbachia pipientis
- protocol.notes: Anti-Wolbachia Cell-Based Screen
- Assay type: functional
- Design: scale not given: in the data most compounds retested in dose-response had high values
- condition.notes: 5 µM
Out of some 48,000 compounds screened, about 13,000 (27%) showed an effect of 50% or more. This is one part of the list.
Answers are plain numbers, in %.

molecule: CCn1cc(S(=O)(=O)NCC(OC)c2cccc(Cl)c2)cn1 (stereo unspecified)
Percent Effect, %: -3.186
//
molecule: Cc1ccc(CNC(c2ccccc2)c2nccn2C)cc1C (stereo unspecified)
Percent Effect, %: -2.774
//
molecule: CC(C)CNC(=O)CN(Cc1ccc(F)cc1)S(C)(=O)=O
Percent Effect, %: 96.65

Each of the following entries comes with a recorded value; kindly state Percent Effect for each.
1. CC(NC(=O)CN(C)S(C)(=O)=O)c1ccc(F)cc1 (stereo unspecified)
2. CC(C)CNC(=O)CN(C)S(C)(=O)=O

1: -21.23; 2: 111.5

The molecule `CC(C)Oc1cc(N2CCC3(CC2)[C@H](O)C[C@@H]3O)nc(N)n1` showed Percent Effect equal to 12.72

* * *

Give Percent Effect for every item shown.
- Test system: Wolbachia pipientis
- protocol.notes: Anti-Wolbachia Cell-Based Screen
- Assay type: functional
- Set-up: scale not given: in the data most compounds retested in dose-response had high values
- condition.notes: 5 µM
About 13,000 (27%) of roughly 48,000 compounds showed an effect of 50% or more. This is one part of the list.
Give bare numbers, in %.

compound: CN(CCc1ccccn1)[C@@H]1CCN(c2cc(C(N)=O)ccn2)C[C@H]1O
Percent Effect [%]: -0.6803
--
compound: CN(C)C(=O)c1cc2c(nc1NCC1CC1)CCNCC2
Percent Effect [%]: 103.6
--
compound: CC(C)(O)c1cc(CC2(NCc3ccco3)COC2)no1
Percent Effect [%]: -7.158

Each of the following entries comes with a recorded value; kindly state Percent Effect for each.
1. CC(C)(C)Cc1noc2ncc(C(=O)N3CCSCC3)cc12
2. NC(=O)C1(CCCc2ccccn2)CCCN(c2ncccn2)C1 (stereo unspecified)
3. CNC(=O)c1cc2c(nc1NCC1CC1)CCN(c1ccncn1)CC2.O=C(O)C(F)(F)F
4. CC(C)Nc1nc2c(cc1C(=O)N(C)C)CCNCC2.O=C(O)C(F)(F)F.O=C(O)C(F)(F)F
5. COc1cc(N2CCCn3cnc(COCCO)c3C2)ncn1

1. -2.131
2. 87.14
3. -1.556
4. -6.085
5. -11.76

Each of the following entries comes with a recorded value; kindly state Percent Effect for each.
1. CN(CCc1ccccn1)C(=O)Nc1cccnc1N1CCCC1
2. O=C(CCCc1ccccn1)N1CCSC2(CCCCC2)C1
3. CNC(=O)c1cc2c(nc1NCC(C)C)CCN(CC1CC1)CC2.O=C(O)C(F)(F)F.O=C(O)C(F)(F)F

[-10.3, -12.36, 9.792]

* * *

- System: Wolbachia pipientis
- protocol.notes: Anti-Wolbachia Cell-Based Screen
- Assay type: functional
- Parameters: scale not given: in the data most compounds retested in dose-response had high values
- condition.notes: 5 µM
Out of some 48,000 compounds screened, about 13,000 (27%) showed an effect of 50% or more. The list shows a part of the results.
Give Percent Effect for every item shown.
Give bare numbers, in %.

molecule: COc1cccc(CN(C)CCCn2cnc3c(N)ncnc32)c1
Percent Effect (%): 85.72

Each of the following entries comes with a recorded value; kindly state Percent Effect for each.
1. COc1ccc(OCCCN(C)C(=O)C2CCCN2C(N)=O)cc1 (centres undefined)
2. CC(C)N1CCCC(C(=O)N2CCN(c3cccc(C(=O)O)c3)CC2)C1 (centres undefined)
3. Clc1cccc(N2CCC(NCc3ncc[nH]3)C2)c1 (centres undefined)
4. COc1cccc(CN(C)C(=O)CN2CCN(CCO)CC2)c1

-3.357
107.1
-6.784
-4.711

Each of the following entries comes with a recorded value; kindly state Percent Effect for each.
1. COc1cccc(CCCn2cnnc2[S+](C)[O-])c1 (centres undefined)
2. O=C(Nc1ccccc1Oc1cccc(F)c1)C1CCS(=O)(=O)C1 (centres undefined)

1. 5.279
2. 17.61

Each of the following entries comes with a recorded value; kindly state Percent Effect for each.
1. CC(C)n1cnnc1CN1CCC2(CCCN(C3CCCCC3)C2=O)C1 (centres undefined)
2. Cn1cc(CN2C[C@@H]3CCCO[C@@H]3[C@H](N3CCCC3=O)C2)cn1.O=C(O)C(F)(F)F
3. COc1ccc(OCCN(C)CCCn2cnc3c(N)ncnc32)cc1
4. CC(C)c1cc(C(=O)N2CCN(c3cccc(C(=O)O)c3)CC2)n(C)n1

[113.2, -11.94, 102.2, 1.445]

Each of the following entries comes with a recorded value; kindly state Percent Effect for each.
1. OCC(CO)Nc1ccc2ccc(Cl)c(Cl)c2n1
2. COc1ccc(OCCN(C)C(=O)NC(C)c2nncn2C)cc1 (centres undefined)

1. 21.88
2. 5.358

* * *

- Tested on: Wolbachia pipientis
- protocol.notes: Anti-Wolbachia Cell-Based Screen
- Format: functional
- Design: scale not given: in the data most compounds retested in dose-response had high values
- condition.notes: 5 µM
Out of some 48,000 compounds screened, about 13,000 (27%) showed an effect of 50% or more. This is one part of the list.
Give Percent Effect for every item shown.
One number for each entry, in %.

compound: COCc1c(C(=O)O)nnn1Cc1cccc(C(F)(F)F)c1
Percent Effect [%]: 8.575

compound: Cc1nc(C2CCCN(C(=O)CN3CCCNC3=O)C2)sc1C (stereo not given)
Percent Effect [%]: 6.53

compound: O=C(CN1CCSC2(CCCCC2)C1)NCC(F)(F)F
Percent Effect [%]: -26.69

compound: CCc1c(C(=O)O)nnn1-c1cccc(C)c1C
Percent Effect [%]: 95.29

compound: COCc1c(C(=O)NC2CCCC2)nnn1-c1ccc(C)cc1
Percent Effect [%]: -4.164

compound: Cc1ccc(C2CSCCN2CCS(C)(=O)=O)cc1 (stereo not given)
Percent Effect [%]: -9.324

compound: CC(C)c1nc(C2CCCN(C(=O)CCCn3ccnc3)C2)no1 (stereo not given)
Percent Effect [%]: 94.72

compound: Cc1ccc(C)c(-n2nnnc2SCN2CCCCC2=O)c1
Percent Effect [%]: -6.055

compound: Cc1ccc(C(=O)N(C)CC(=O)N2CCCC2)c(C)c1
Percent Effect [%]: -3.926

compound: CCCC(C)(C)NC(=O)CCN1CCOC1=O
Percent Effect [%]: 8.427

Each of the following entries comes with a recorded value; kindly state Percent Effect for each.
1. CN(C)c1ncc(-c2ccc(C(N)=O)cc2)c(C2CNCCO2)n1 (stereo not given)
2. CC(C)c1cc2c(O)nc(CSCC(=O)NCc3ccccn3)nc2s1
3. CC(C)OCCOCc1cccc(NC(=O)NCc2ccccn2)c1
4. COc1cccc(CN(C)Cc2cccc(C#N)c2)c1OC
5. CC(C)c1nc(C2CCCN(C(=O)CCn3ccnc3)C2)no1 (stereo not given)
6. O=C1O[C@@H]2CN(c3ccccn3)C[C@@H]2N1CCCc1ccc(F)cc1
7. CC(C)c1nc(C2CCCN(C(=O)CCCn3cccn3)C2)no1 (stereo not given)
8. Cc1c(C(=O)N2CCC2(C)C)nnn1-c1cccc2cccnc12

1: 99.82; 2: -13.17; 3: 14.04; 4: -9.148; 5: -0.5429; 6: 2.286; 7: 95.04; 8: 0.9445

Each of the following entries comes with a recorded value; kindly state Percent Effect for each.
1. CC(C)c1nc(C2CCCN(C(=O)CN(C)S(C)(=O)=O)C2)no1 (stereo not given)
2. O=C(C1CC2(CCNCC2)CN1)N1CCN(c2cccc(Cl)c2Cl)CC1 (stereo not given)
3. CC(C)c1nc(C2CCCN(C(=O)CN3CCCNC3=O)C2)no1 (stereo not given)
4. Cc1ccc(CCNC(=O)NCCCC(N)=O)c(C)c1
5. CCc1cc(NC2CCS(=O)(=O)CC2)nc(N2CCCCC2)n1

[-21.51, 3.67, 6.733, -5.264, -3.09]

Each of the following entries comes with a recorded value; kindly state Percent Effect for each.
1. Cc1c(C(=O)O)nnn1-c1cccc2cccnc12
2. CCc1c(C(=O)O)nnn1-c1cc(C)cc(C)c1

1: -7.776; 2: 90.67
